System: C33A
Assay: Primary qHTS to identify gynecologic anti-cancer compounds using libraries of approved drugs and bioactive compounds (AID 1345084); also: nearly all actives have a fitted effect of over 55% in size
Conditions: Gynecologic cancer cell panel viability, ATPlite luminescence, 48 h; series mostly up to 57.5 µM
Results filed as inconclusive are left out. The source made the active and inactive calls. Calls follow the shape of the dose curve; as a rule, active = well fitted cell-killing curve with a large enough effect; inconclusive = small, poorly fitted or top-dose-only effect, or effect the other way; inactive = flat fitted curve, though single readings scatter.
Pick one and only one: TRUE = active, FALSE = inactive

Recorded results for 6 molecules are shown here.
CC(=O)NC(=O)c1ccccc1O :: FALSE
Cc1c(-c2ccccc2)oc2c(C(=O)OCCN3CCCCC3)cccc2c1=O :: FALSE
CCCCC(CC)CN1CN(CC(CC)CCCC)CC(C)(N)C1 (stereo not given) :: FALSE
CC[C@]12CCCN3CCc4c(n(c5ccccc45)C(=O)C1)[C@@H]32 :: FALSE
Cc1ccc(-c2ncc(Cl)cc2-c2ccc(S(C)(=O)=O)cc2)cn1 :: FALSE
CC(=O)OC[C@H]1O[C@@H](n2ncc(=O)[nH]c2=O)[C@H](OC(C)=O)[C@@H]1OC(C)=O :: FALSE

Asked: For CC(CNC1CCCCC1)OC(=O)c1ccccc1 (stereo not given) , what call appears in the results of this test?
Given back: FALSE

Asked: Do the same for O=C1[C@H](CC[C@H](O)c2ccc(F)cc2)[C@@H](c2ccc(O)cc2)N1c1ccc(F)cc1 please
Given back: FALSE

Asked: Do the same for OC[C@H]1O[C@@H](Oc2ccc(O)cc2)[C@H](O)[C@@H](O)[C@@H]1O please
Given back: FALSE

Asked: Do the same for CCCCCCCCCCCCSCCOCCO please
Given back: FALSE

Asked: Do the same for CCNC(=O)NCc1cccc(Cl)c1 please
Given back: FALSE

Asked: Do the same for C=C[C@H]1CN2CC[C@H]1C[C@H]2[C@H](O)c1ccnc2ccc(OC)cc12 please
Given back: FALSE

Asked: Do the same for C[C@H]1O[C@@H](O[C@H]2CC[C@@]3(C)[C@H](CC[C@@H]4[C@@H]3C[C@@H](O)[C@]3(C)[C@@H](C5=CC(=O)OC5)CC[C@]43O)C2)C[C@H](O)[C@@H]1O[C@H]1C[C@H](O)[C@H](O[C@H]2C[C@H](O)[C@H](O[C@@H]3O[C@H](CO)[C@@H](O)[C@H](O)[C@H]3O)[C@@H](C)O2)[C@@H](C)O1 please
Given back: TRUE

Asked: Do the same for CN(C)CCC[C@@]1(c2ccc(F)cc2)OCc2cc(C#N)ccc21 please
Given back: FALSE

Asked: Do the same for O=C(O)c1ccc(S(=O)(=O)N(Cl)Cl)cc1 please
Given back: FALSE

Asked: Do the same for COc1ccccc1N1CCN(CCCCNC(=O)c2ccc(-c3ccc(C(C)=O)cc3)cc2)CC1 please
Given back: FALSE

Asked: Do the same for N[C@H](C(=O)O)[C@@H](O)c1ccc(O)c(O)c1 please
Given back: FALSE

Asked: Do the same for COc1cc(C(=O)N2CCCCCCC2)cc(OC)c1OC please
Given back: FALSE

---

Tested on: C2A
Assay: qHTS profiling for inhibitors of Plasmodium falciparum proliferation (AID 504749); also: nearly all actives have a fitted effect of over 60% in size
Settings: P. falciparum in erythrocytes, SYBR Green DNA, 72 h; series mostly up to 28.7 µM
Records with an inconclusive call do not appear. Calls of active or inactive are those of the source. Calls follow the shape of the dose curve; as a rule, active = well fitted inhibition curve with a large enough effect; inconclusive = small, poorly fitted or top-dose-only effect; inactive = flat fitted curve, though single readings scatter.
Pick one and only one: active, inactive

O=C(O)c1ccc(S(=O)(=O)N(Cl)Cl)cc1 :: inactive
COc1ccc(C(Cl)=C(c2ccc(OC)cc2)c2ccc(OC)cc2)cc1 :: active
Cc1cc(CC(=O)O)c(C)n1-c1ccc(Cl)cc1 :: inactive
CCCCCCCCCCCCSCCOCCO :: inactive
O=C(Oc1cccc2cccnc12)c1ccccc1 :: inactive
CC(C)CCCC(C)N (centres undefined) :: inactive
FC1(F)C(F)(F)C(F)(F)C2(F)C(F)(F)C(F)(F)C(F)(F)C(F)(F)C2(F)C1(F)F (centres undefined) :: inactive
CC(=O)N[C@@H](CCC(=O)O)C(=O)O :: inactive

Asked: For CCCCN=C(N)N=C(N)N , what call appears in the results of this test?
Given back: inactive

Asked: Do the same for CN1CCC[C@@H]1CCO[C@](C)(c1ccccc1)c1ccc(Cl)cc1 please
Given back: inactive

Asked: Do the same for C/C=C/C=N/NC(=O)c1ccncc1 please
Given back: inactive

Asked: Do the same for CC1CCc2c(N3CCC(O)CC3)c(F)cc3c(=O)c(C(=O)O)cn1c23 (centres undefined) please
Given back: inactive

Asked: Do the same for CC(C)Cc1ccc(CC(=O)O)cc1 please
Given back: inactive
